Assay: small molecules captured by biotinylated probe aFST – biochemical, small-molecule microarray, fluorescence 635/667, stem cell growth factor project, primary screen (AID 1086);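 note: score merges 667 nm fluorescence with signal-to-noise of each printed compound spot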
Conditions: higher = more signal
Lab note: compare composite z-score against 1. Equal or greater, write True. Smaller, write False.

molecule	assigned category
O=C1O[C@@H](c2ccccc2)[C@@H](c2ccccc2)N2[C@@H](c3ccc(O)cc3)[C@]3(C(=O)Nc4ccccc43)[C@@H](C(=O)N3CCCCCCC3)[C@H]12	True
COC(=O)[C@@]1(Cc2ccc(F)cc2)[C@H]2c3cc(C(=O)N(C)C)n(CCc4c[nH]c5ccc(OC)cc45)c3C[C@H]2CN1C(=O)c1ccccc1	True
O=C1C2C=CC(C(O)c3cccc4ccccc34)N(n3cnnc3)C2C(=O)N1Cc1ccccc1 (configuration not stated)	True
C=C(C(=O)CC[C@H](OC(=O)c1cccnc1)c1ccccc1OCCO)C(C)C	False

[ask] For this molecule, is measured composite z-score 1 or higher? Cc1ccc(F)cc1S(=O)(=O)N[C@@H]1CCN(Cc2ccc(C(F)(F)F)cc2)C1
[reply] False

[ask] Entry C=CCC(OC(C)=O)[C@@H]1[C@@H](N(Cc2cc3ccccc3o2)C(=O)c2cccc3ccccc23)c2cc(OCCCO)ccc2N1C(=O)Cc1ccc(OC)cc1 (some centres not stated) : is its composite z-score no less than 1?
[reply] False

[ask] Textbook exercise: given the entry COCCCNC(=O)[C@@]1(Cc2ccccc2I)c2ccccc2C(=O)N(Cc2ccccc2)[C@H]1c1ccc(CO)cc1 , state whether its composite z-score is greater than or equal to 1.
[reply] False
